# Tested on: BT-549 breast
# ASSAY: NCI-60 one-dose screen, 48 h
# CONDITION PARAMETERS: 10 µM unless noted
About 83,000 compounds went through this panel and 20% of them were active in at least one assay; those are over-represented in the sample as a whole. The source made the active and inactive calls. Rule for the calls: active = growth percent below 10; inactive = the rest.
# valid calls are active, inactive; nothing else

Sample answers from the record:
Cc1cc(N2CCSCC2)nc(NC2CCCC(Nc3ccnc4cc(Cl)ccc34)C2)n1 (stereo not given) ... active
CCNc1ncnc2c1cnn2C1CCCO1 (stereo not given) ... inactive
Cc1cc(N2CCCCC2)nc(NC2CCCC(Nc3ccnc4cc(Cl)ccc34)C2)n1 (stereo not given) ... active

Status in this test for `COc1cc(/C=C/c2cc(/C=C/c3ccc(O)c(OC)c3)n(-c3c(Cl)cccc3Cl)c(=O)n2)ccc1O` ? inactive

Look up the recorded call for `COc1cccc(/C=C2\Oc3cc(OCCN4CCCC4)ccc3C2=O)c1` in this test. inactive

# credit: PubChem BioAssay (NCI)
